Molecular target: strychnine-insensitive glycine site (glycineB) of the NMDA receptor (rat cortical membranes) (Rattus norvegicus)
Construct: The cortex was dissected and homogenised in 20 volumes of ice-cold 0.32M sucrose
Assay: [3H]glycine binding assay
Conditions: 20 nM [3H]glycine, 100 μM strychnine
Experimental: Tissue preparation was performed according to Foster and Wong (1987). Male Sprague-Dawley rats (200-250g) were decapitated and their brains were removed rapidly. The cortex was dissected and homogenised in 20 volumes of ice-cold 0.32M sucrose using a glass-Teflon homogenizer. […] The amount of protein in the final membrane preparation was determined according to the method of Lowry (1951) with some modifications (Hartfree, 1972). […] Absorbencies were then read in 1 cm cuvets at 650 nm. […]
Listed below: log10 IC50 values for each entry.
Endpoint Name: log10 IC50 (log10 of the value in µM)

>  <Molecular String>
O=c1[nH]nc(O)c2c1cc1cc(Cl)ccc1[n+]2[O-]

>  <log10 IC50>
-1.89

$$$$
>  <Molecular String>
O=c1[nH][nH]c(=O)c2nc3ccc(Br)cc3cc12

>  <log10 IC50>
-1.89

$$$$
>  <Molecular String>
O=c1[nH]nc(O)c2c1cc1cc(F)ccc1[n+]2[O-]

>  <log10 IC50>
-1.77

$$$$
>  <Molecular String>
O=c1[nH][nH]c(=O)c2nc3ccc(Cl)cc3cc12

>  <log10 IC50>
-1.10

$$$$
>  <Molecular String>
O=c1[nH]nc(O)c2c1cc1cc(Br)ccc1[n+]2[O-]

>  <log10 IC50>
-2.40

$$$$
>  <Molecular String>
O=c1[nH][nH]c(=O)c2nc3ccc(F)cc3cc12

>  <log10 IC50>
-1.82

$$$$

---

Target: NMDA receptor (Rattus norvegicus)
Construct: endogenous in cells
Assay: Patch clamp, inward currents to NMDA in cultured superior colliculus neurones
Type: cell-based
Details: NMDA 200 μM, glycine 1 μM, peak currents; read-out: Peak NMDA IC50
Experimental: Cells were mechanically dissociated in 0.05% DNAase / 0.3% ovomucoid (Sigma) following a 15 minute pre-incubation with 0.66% trypsin / 0.1% DNAase (Sigma). […] This effect was mediated at the glycineB site as evidenced by the parallel shift in the concentration-response curves in the presence of increasing glycine concentrations. Thus the Kbs of Mrz 2/502 as assessed according to the Cheng-Prusoff relationship were similar in glycine 1, 3 and 10 μM (80, 124 and 118 nM respectively). […]
pIC50: −log10 of the molar value.
Endpoint Name: pIC50

>  <Compound>
O=c1[nH][nH]c(=O)c2nc3ccc(Br)cc3cc12 [Mrz 2/586]

>  <Meas Value>
5.66

$$$$
>  <Compound>
O=c1[nH][nH]c(=O)c2nc3ccc(F)cc3cc12 [Mrz 2/572]

>  <Meas Value>
4.91

$$$$
>  <Compound>
O=c1[nH][nH]c(=O)c2nc3ccc(F)cc3cc12 [Mrz 2/519]

>  <Meas Value>
4.74

$$$$
>  <Compound>
O=c1[nH][nH]c(=O)c2nc3cc(Cl)c(Cl)cc3cc12

>  <Meas Value>
5.43

$$$$
>  <Compound>
O=c1[nH]nc(O)c2c1cc1cc(Br)c(Cl)cc1[n+]2[O-]

>  <Meas Value>
5.62

$$$$
>  <Compound>
O=c1[nH]nc(O)c2c1cc1cc(Cl)ccc1[n+]2[O-] [Mrz 2/502]

>  <Meas Value>
6.10

$$$$
>  <Compound>
O=c1[nH]nc(O)c2c1cc1cc(F)ccc1[n+]2[O-] [Mrz 2/571]

>  <Meas Value>
5.31

$$$$
>  <Compound>
O=c1[nH][nH]c(=O)c2nc3ccc(Cl)cc3cc12 [Mrz 2/501]

>  <Meas Value>
5.64

$$$$
>  <Compound>
O=c1[nH]nc(O)c2c1cc1cc(Br)ccc1[n+]2[O-] [Mrz 2/570]

>  <Meas Value>
6.22

$$$$
>  <Compound>
O=c1[nH][nH]c(=O)c2nc3cc(Br)c(Cl)cc3cc12

>  <Meas Value>
4.03

$$$$
>  <Compound>
O=c1[nH]nc(O)c2c1cc1cc(F)ccc1[n+]2[O-] [Mrz 2/516]

>  <Meas Value>
5.20

$$$$
>  <Compound>
COc1ccc2c(c1)cc1c(=O)[nH]nc(O)c1[n+]2[O-]

>  <Meas Value>
4.00

$$$$
>  <Compound>
O=c1[nH][nH]c(=O)c2nc3cc(Cl)c(Br)cc3cc12

>  <Meas Value>
5.28

$$$$
>  <Compound>
O=c1[nH]nc(O)c2c1cc1cc(Cl)ccc1[n+]2[O-] [Mrz 2/576]

>  <Meas Value>
5.96

$$$$
>  <Compound>
O=c1[nH]nc(O)c2c1cc1cc(Cl)c(Br)cc1[n+]2[O-]

>  <Meas Value>
5.00

$$$$
>  <Compound>
COc1ccc2cc3c(=O)[nH][nH]c(=O)c3nc2c1

>  <Meas Value>
4.03

$$$$
>  <Compound>
O=c1[nH]nc(O)c2c1cc1cc(Br)ccc1[n+]2[O-] [Mrz 2/514]

>  <Meas Value>
6.30

$$$$
>  <Compound>
O=c1[nH]nc(O)c2c1cc1cc(Cl)c(Cl)cc1[n+]2[O-]

>  <Meas Value>
5.42

$$$$
>  <Compound>
O=c1[nH][nH]c(=O)c2nc3ccccc3cc12

>  <Meas Value>
4.18

$$$$
>  <Compound>
O=c1[nH][nH]c(=O)c2nc3ccc(Cl)cc3cc12 [Mrz 2/569]

>  <Meas Value>
5.70

$$$$
>  <Compound>
O=c1[nH]nc(O)c2c1cc1ccccc1[n+]2[O-]

>  <Meas Value>
4.29

$$$$
>  <Compound>
O=c1[nH][nH]c(=O)c2nc3ccc(Br)cc3cc12 [Mrz 2/503]

>  <Meas Value>
5.77

$$$$
>  <Compound>
COc1ccc2nc3c(=O)[nH][nH]c(=O)c3cc2c1

>  <Meas Value>
3.77

$$$$

---

Target: NMDA receptor (Mus musculus)
Construct: from tissue; host or cells: living mice (albino Swiss males for NMDA and PTZ tests, NMR females for MES)
Experiment: Pentylenetetrazol (PTZ)-induced convulsions
Format: in vivo
Conditions: ip, 0.25 h, i.p., PTZ 90 mg/kg i.p., read-out: PTZ ID50
Endpoint Name: ED50 (mg/kg)

>  <Compound>
O=c1[nH][nH]c(=O)c2nc3cc(Cl)c(Cl)cc3cc12 [Mrz 2/515]

>  <Endpoint Name>
ED50

>  <Censoring Sign>
>

>  <Meas Value>
100

$$$$
>  <Compound>
O=c1[nH]nc(O)c2c1cc1cc(Cl)ccc1[n+]2[O-] [Mrz 2/502]

>  <Endpoint Name>
ED50

>  <Censoring Sign>
=

>  <Meas Value>
8.3

$$$$
>  <Compound>
O=c1[nH]nc(O)c2c1cc1cc(F)ccc1[n+]2[O-] [Mrz 2/516]

>  <Endpoint Name>
ED50

>  <Censoring Sign>
=

>  <Meas Value>
7.9

$$$$
>  <Compound>
O=c1[nH][nH]c(=O)c2nc3ccc(F)cc3cc12 [Mrz 2/519]

>  <Endpoint Name>
ED50

>  <Censoring Sign>
>

>  <Meas Value>
100

$$$$
>  <Compound>
O=c1[nH][nH]c(=O)c2nc3cc(Cl)c(Br)cc3cc12 [Mrz 2/539]

>  <Endpoint Name>
ED50

>  <Censoring Sign>
>

>  <Meas Value>
100

$$$$
>  <Compound>
O=c1[nH][nH]c(=O)c2nc3ccc(Br)cc3cc12 [Mrz 2/503]

>  <Endpoint Name>
ED50

>  <Censoring Sign>
>

>  <Meas Value>
100

$$$$
>  <Compound>
O=c1[nH][nH]c(=O)c2nc3ccccc3cc12 [Mrz 2/585]

>  <Endpoint Name>
ED50

>  <Censoring Sign>
=

>  <Meas Value>
59

$$$$
>  <Compound>
O=c1[nH][nH]c(=O)c2nc3ccc(Cl)cc3cc12 [Mrz 2/501]

>  <Endpoint Name>
ED50

>  <Censoring Sign>
>

>  <Meas Value>
40

$$$$
>  <Compound>
O=c1[nH]nc(O)c2c1cc1cc(Br)ccc1[n+]2[O-] [Mrz 2/514]

>  <Endpoint Name>
ED50

>  <Censoring Sign>
=

>  <Meas Value>
12.8

$$$$
>  <Compound>
O=c1[nH][nH]c(=O)c2nc3cc(Br)c(Cl)cc3cc12 [Mrz 2/538]

>  <Endpoint Name>
ED50

>  <Censoring Sign>
>

>  <Meas Value>
100

$$$$
>  <Compound>
O=c1[nH]nc(O)c2c1cc1ccccc1[n+]2[O-] [Mrz 2/499]

>  <Endpoint Name>
ED50

>  <Censoring Sign>
=

>  <Meas Value>
18.6

$$$$
